- TGT: T1, Peptide 4: Biotin-AGGGGSGGGGSGGGGSAAA-Tyr-acid (N-terminal biotin; C-terminal acid)
- T1 construct: control peptide without PC
- T1 peptide: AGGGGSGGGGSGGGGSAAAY
- EXPERIMENT DESCRIPTION: scFv ELISA
READOUT KIND: OD450 (OD450)
State the answer as a number, implicitly in OD450.

Ask | Tell me OD450 reported for PcOxP_DB03_C06 (scFv, V domains shown, scFv in periplasmic extract) VH: EVQLLESGGGLVQPGGSLRLSCAASGATFSDFYMEWVRQAPGKGLEWVAASRNGANDYTTEYADSVKGRFTISRDNSKNTLYLQMNSLRAEDTAVYYCARDYYGNSYWYFDVWGQGTLVTVSS VL: DIQMTQSPSSLSASVGDRVTITCTASESLYSSKHKVHYLAWYQQKPGKAPKLLIYGASNRQSGVPSRFSGSGSGTDFTLTISSLQPEDFATYYCAQFYVYPLTFGGGTKVEIK
Reply | 0.05

Ask | Specify measured OD450 for PcOxP_DB03_C03 (scFv, V domains shown, scFv in periplasmic extract) VH: EVQLLESGGGLVQPGGSLRLSCAASGFTFSDFYMEWVRQAPGKGLEWVAASRNKYNDYTTEYADSVKGRFTISRDNSKNTLYLQMNSLRAEDTAVYYCARDYYGSSYWYFDVWGQGTLVTVSS VL: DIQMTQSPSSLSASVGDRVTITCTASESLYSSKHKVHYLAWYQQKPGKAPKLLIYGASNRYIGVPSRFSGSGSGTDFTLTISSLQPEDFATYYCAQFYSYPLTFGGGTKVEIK .
Reply | 0.05

Ask | Return OD450 (reported value) for this binder: PcOxP_DB02_C01 (scFv, V domains shown, scFv in periplasmic extract) VH: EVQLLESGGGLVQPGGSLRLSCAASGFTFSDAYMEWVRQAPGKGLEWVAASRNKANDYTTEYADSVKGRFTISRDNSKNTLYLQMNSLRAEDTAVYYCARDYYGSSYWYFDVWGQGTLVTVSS VL: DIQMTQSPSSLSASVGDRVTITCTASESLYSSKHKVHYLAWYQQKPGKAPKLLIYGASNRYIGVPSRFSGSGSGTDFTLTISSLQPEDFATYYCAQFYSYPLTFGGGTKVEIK
Reply | 0.06

Ask | Report OD450 for PcOxP_DB03_F10 (scFv, V domains shown, scFv in periplasmic extract) VH: EVQLLESGGGLVQPGGSLRLSCAASGFTFSDHYMEWVRQAPGKGLEWVAASRNSGNSYTTEYADSVKGRFTISRDNSKNTLYLQMNSLRAEDTAVYYCARDYYGSSYWYFDVWGQGTLVTVSS VL: DIQMTQSPSSLSASVGDRVTITCTASESLYSSKHSVHYLAWYQQKPGKAPKLLIYGASNRFIGVPSRFSGSGSGTDFTLTISSLQPEDFATYYCAQFYSYPLTFGGGTKVEIK
Reply | 0.05

Ask | In one line, give reported OD450 of the entry PcOxP_DB01_H10 (scFv, V domains shown, scFv in periplasmic extract) VH: EVQLLESGGGLVQPGGSLRLSCAASGFTFSDGYMEWVRQAPGKGLEWVAASRNKNNDYTTEYADSVKGRFTISRDNSKNTLYLQMNSLRAEDTAVYYCARDYYGSSYWYFDVWGQGTLVTVSS VL: DIQMTQSPSSLSASVGDRVTITCTASESLYSSKHKVHYLAWYQQKPGKAPKLLIYGASNRYFGVPSRFSGSGSGTDFTLTISSLQPEDFATYYCAQFYQYPLTFGGGTKVEIK .
Reply | 0.06
